Experimental protocol: qHTS for Inhibitors of human tyrosyl-DNA phosphodiesterase 1 (TDP1): qHTS in cells in presence of CPT; further: nearly all actives have a fitted effect of over 55% in size
Measurement parameters: chicken DT40 Tdp1-/-;hTDP1 cells + 20 nM CPT, ATP luminescence, 48 h; series mostly up to 46.2 µM
Out of some 420,000 compounds screened, about 50,000 (12%) were called active. About 26% were inconclusive and are not listed. The call rests on the fitted dose curve; in most records, active means well fitted inhibition curve with a large enough effect; inconclusive means small, poorly fitted or top-dose-only effect; inactive means flat fitted curve, though single readings scatter. Shown is part of a subset that was picked to be rich in actives.
Would you mind answering with one of these outcomes? active, inactive

CC(=O)Nc1ccc(NC(=O)C(C)n2c3ccccc3c3nc(=O)cc(C)n32)cc1 (stereo unspecified) : inactive
CC1CCC2(CC1)NC(=O)N(CC(=O)c1cccn1C)C2=O (stereo unspecified) : inactive
COc1cc(C(=O)NCCS(=O)(=O)N2CCN(c3ccccc3)CC2)cc(OC)c1OC : active
CC1CC2=C(CC1/C=N/NC(N)=S)C(C)(C)CCC2 (stereo unspecified) : active
Cc1ccc(C(=O)N/C(=C\c2ccc(F)cc2)C(=O)NCCN2CCOCC2)cc1 : inactive
CC(C)c1ccc(Cc2nnc(NCCCO)[nH]c2=O)cc1 : inactive
COc1ccc(NC(=O)CC2C(=O)NC3CCCCC3N2C(=O)c2ccc(F)cc2)cc1 (stereo unspecified) : inactive
O=C(CCC(=O)c1cccs1)Nc1nc2ccccc2s1 : inactive

Recorded test call requested for "COc1cccc(CNC(=O)CN2C(=O)CCc3cc(S(=O)(=O)N4CCOCC4)ccc32)c1"
inactive

Recorded test call requested for "CCc1ccccc1NC(=O)NCCN1CCCCC1"
inactive

Recorded test call requested for CCC(CO)Oc1cc(NC(=O)c2cccc(F)c2)c2ncn(C(C)C)c2c1 (stereo unspecified)
inactive

---

Experimental protocol: qHTS for Inhibitors of human tyrosyl-DNA phosphodiesterase 1 (TDP1): qHTS in cells in presence of CPT; further: nearly all actives have a fitted effect of over 55% in size
Measurement parameters: chicken DT40 Tdp1-/-;hTDP1 cells + 20 nM CPT, ATP luminescence, 48 h; series mostly up to 46.2 µM
Among all 420,000 compounds or so, about 50,000 (12%) were called active. About 26% were inconclusive and are not listed. The list comes from a sample in which actives are over-represented; it also holds close analogues and randomly drawn compounds.
Readout type: outcome

COc1ccc(OCCNS(=O)(=O)Cc2ccccc2)cc1 : inactive
CC1(C)CC(=O)C=C(N2CCCC2)C1 : inactive
CCS(=O)(=O)N1CCCC(C(=O)NCc2ccc(C)cc2)C1 (stereo not drawn) : inactive

---

Experimental protocol: qHTS for Inhibitors of human tyrosyl-DNA phosphodiesterase 1 (TDP1): qHTS in cells in presence of CPT; further: nearly all actives have a fitted effect of over 55% in size
Measurement parameters: chicken DT40 Tdp1-/-;hTDP1 cells + 20 nM CPT, ATP luminescence, 48 h; series mostly up to 46.2 µM
The whole screen tested about 420,000 compounds, of which about 50,000 (12%) were called active. Another 26% or so got no clear call; they are omitted. Calls come from the whole dose curve; as a rule, active = well fitted inhibition curve with a large enough effect; inconclusive = small, poorly fitted or top-dose-only effect; inactive = flat fitted curve, though single readings scatter. The sample as a whole holds a higher share of actives than the screen did.
Would you mind answering with one of these outcomes? yes (1) (active), no (0) (inactive)

Field: example entries. Status: answers known.
CCCCc1nc(NCCN)c(C#N)c2c1CSC(C)(C)C2 : yes (1)
CCCC(C)C(=O)Nc1ccc(NC(C)=O)cc1 (centres undefined) : no (0)
OCCn1c(-c2ccccc2)csc1=Nc1ccccc1 : yes (1)
COc1ccc2c(c1)C(=O)Nc1cc(Cl)ccc1N2 : no (0)
O=C1c2cccnc2C(=O)N1Cc1cccs1 : no (0)
CC(=O)N1CC(=O)N(CC(=O)Nc2ccc(Br)cc2)C1=S : no (0)

Recorded test call requested for COc1ccc(OC)c(C(c2nnnn2C(C)(C)C)N2CCc3ccccc3C2)c1 (centres undefined)
yes (1)

Recorded test call requested for "Cc1cc(S(=O)(=O)NCc2ccccn2)c(Cl)cc1Cl"
no (0)

Recorded test call requested for "COc1ccc(CCNS(=O)(=O)c2cccc([N+](=O)[O-])c2)cc1"
no (0)

Recorded test call requested for CCN1CCN(C(C(=O)NC2CCCC2)c2cc3c(cc2[N+](=O)[O-])OCO3)CC1 (centres undefined)
no (0)

Recorded test call requested for "COc1ccc(C)cc1S(=O)(=O)N(CC(=O)Nc1cccc([N+](=O)[O-])c1)c1ccc(C)cc1"
yes (1)

Recorded test call requested for "c1ccc(NCc2cccc3ccccc23)nc1"
no (0)

Recorded test call requested for COc1c(N2CCN(C(=S)Nc3ccccc3F)C(C)C2)c(F)cc2c(=O)c(C(=O)O)cn(C3CC3)c12 (centres undefined)
no (0)

Recorded test call requested for "O=C(CCc1ccccc1)NNc1ccc(F)cc1"
no (0)

---

Experimental protocol: qHTS for Inhibitors of human tyrosyl-DNA phosphodiesterase 1 (TDP1): qHTS in cells in presence of CPT; further: nearly all actives have a fitted effect of over 55% in size
Measurement parameters: chicken DT40 Tdp1-/-;hTDP1 cells + 20 nM CPT, ATP luminescence, 48 h; series mostly up to 46.2 µM
The campaign covered roughly 420,000 compounds. About 50,000 (12%) were called active. Inconclusive results (about 26%) are left out. Calls follow the shape of the dose curve; as a rule, active = well fitted inhibition curve with a large enough effect; inconclusive = small, poorly fitted or top-dose-only effect; inactive = flat fitted curve, though single readings scatter. The full list was thinned out, with actives kept by preference.
Would you mind answering with one of these outcomes? active, inactive

Field: example entries. Status: answers known.
CCCCNCCS(=O)(=O)NCc1ccccc1 : inactive
COc1ccc(C(=O)Nc2cc(C)ccc2NC(=O)COc2ccccc2)cc1 : inactive
CCCC(=O)Nc1ccc2oc(-c3ccc(O)c(Br)c3)nc2c1 : inactive
O=C(CC1Oc2ccc(Cl)cc2NC1=O)NCc1ccccc1 (configuration not stated) : inactive
COc1ccc(CNS(=O)(=O)c2cc3c4c(c2)CCN4C(=O)CC3)cc1 : inactive
CC1CN(C(=O)c2cccc(NS(=O)(=O)c3ccc(Br)cc3)c2)CC(C)O1 (configuration not stated) : inactive
COC(=O)COc1cccc2c(=O)n(CC(=O)NCc3ccccc3)ccc12 : active
O=C(Cc1ccc(Cl)cc1)c1ccccc1 : inactive

Recorded test call requested for "Cc1cccc(NS(=O)(=O)c2ccc(-c3cnc(C4CC4)o3)cc2)c1"
active

Recorded test call requested for "COc1ccc(CNS(=O)(=O)c2ccc(-c3cnc(C4CC4)o3)cc2)cc1"
active

Recorded test call requested for "CCn1c(=O)cc(SCC(=O)NCc2ccc3c(c2)OCO3)c2ccccc21"
inactive

Recorded test call requested for "O=C1C(Cl)=C(N2CCOCC2)C(=O)N1c1ccccc1"
inactive

---

Experimental protocol: qHTS for Inhibitors of human tyrosyl-DNA phosphodiesterase 1 (TDP1): qHTS in cells in presence of CPT; further: nearly all actives have a fitted effect of over 55% in size
Measurement parameters: chicken DT40 Tdp1-/-;hTDP1 cells + 20 nM CPT, ATP luminescence, 48 h; series mostly up to 46.2 µM
The campaign covered roughly 420,000 compounds. About 50,000 (12%) were called active. Not shown: some 26% with an inconclusive outcome. Calls follow the shape of the dose curve; as a rule, active = well fitted inhibition curve with a large enough effect; inconclusive = small, poorly fitted or top-dose-only effect; inactive = flat fitted curve, though single readings scatter. The full list was thinned out, with actives kept by preference.
Would you mind answering with one of these outcomes? active, inactive

Field: example entries. Status: answers known.
O=C(NCc1cccnc1)c1cccnc1Sc1ccc(Cl)cc1 : inactive
CCc1c(C)nc(SCC(=O)NC2CCCC2)[nH]c1=O : inactive
CN(C(=O)c1c(Cl)cnn1C)C12CC3CC(CC(C3)C1)C2 : inactive
CCOc1ccc(C(=O)c2cn(Cc3ccc(F)cc3)c3ccc(F)cc3c2=O)cc1 : active
CC(=O)Nc1ccc(NC(=O)CN2CCCC(C)C2)c(Cl)c1 (configuration not stated) : inactive

Recorded test call requested for "CC(=O)c1ccc(N=C2SCCCN2C(=O)C2CCCCC2)cc1"
inactive

Recorded test call requested for "COc1cc(NC(=O)CN(C)S(=O)(=O)c2ccc3nc(C)sc3c2)cc(OC)c1"
inactive

---

Experimental protocol: qHTS for Inhibitors of human tyrosyl-DNA phosphodiesterase 1 (TDP1): qHTS in cells in presence of CPT; further: nearly all actives have a fitted effect of over 55% in size
Measurement parameters: chicken DT40 Tdp1-/-;hTDP1 cells + 20 nM CPT, ATP luminescence, 48 h; series mostly up to 46.2 µM
The whole screen tested about 420,000 compounds, of which about 50,000 (12%) were called active. Another 26% or so got no clear call; they are omitted. Calls come from the whole dose curve; as a rule, active = well fitted inhibition curve with a large enough effect; inconclusive = small, poorly fitted or top-dose-only effect; inactive = flat fitted curve, though single readings scatter. Only a selection was taken, and actives are over-represented in it overall.
Would you mind answering with one of these outcomes? T (active), F (inactive)

CC(OC(=O)c1ccc(Cl)cc1O)C(=O)NCCC1=CCCCC1 (stereo not given) : F
Cc1ccc(Cl)cc1NC(=O)NC1COc2ccccc2C1 (stereo not given) : F
CC(C)(C)c1ccc(C(=O)C[N+]2(C)CCCc3ccccc32)cc1 (stereo not given) : T
Cn1ncc2c(N3CCCCC3)nc(NCCCO)nc21 : F

Recorded test call requested for "COc1c(Br)cc2c(C)c(C(=O)N3CCOCC3)oc2c1Br"
T

---

Experimental protocol: qHTS for Inhibitors of human tyrosyl-DNA phosphodiesterase 1 (TDP1): qHTS in cells in presence of CPT; further: nearly all actives have a fitted effect of over 55% in size
Measurement parameters: chicken DT40 Tdp1-/-;hTDP1 cells + 20 nM CPT, ATP luminescence, 48 h; series mostly up to 46.2 µM
Among all 420,000 compounds or so, about 50,000 (12%) were called active. Inconclusive results (about 26%) are left out. For the sample, actives were picked, then their nearest neighbours and some compounds at random.
Readout type: outcome

COc1ccc(NC(=O)c2cc(=O)[nH]c3ccccc23)cc1S(=O)(=O)N1CCOCC1 : inactive
Cc1ccc(C(=O)N/C(=C/c2cccnc2)C(=O)O)cc1 : inactive
CCOCCCN1C(=O)C2C(C(=O)Nc3ccc(OCC)cc3)C3C=CC2(O3)C1C(=O)NC1CCCCC1 (stereo not drawn) : inactive
